- Organism: Rattus norvegicus
- experimentalProtocol: Open TG-GATES - Regimen: Daily Repeat
- Format: toxicity, organism-based, Sprague-Dawley
- Design: regimen Daily Repeat, gender Male, age 6 weeks
- setupConditions: in vivo, po, 0 mg/kg, […], tissue Blood, route gavage, dose level Control, time 7 day
Kindly state RBC for each of the entries shown.
Write down the numeric answer in x10_4/ul and omit the unit.

State the recorded RBC for this entry: C[C@H]1C(=O)O[C@@H]2CCN3CC=C(COC(=O)[C@](C)(O)[C@]1(C)O)[C@H]23 [MONOCROTALINE] 638.2

Quick one: RBC for Cn1cc[nH]c1=S [METHIMAZOLE] ? 638

For OCCN1CCN(CCCN2c3ccccc3Sc3ccc(C(F)(F)F)cc32)CC1 [FLUPHENAZINE] , what is its reported RBC? 627.6

Quick one: RBC for C[C@H]1O[C@H](O[C@H]2[C@H](O)[C@@H](O)[C@@H](O[C@H]3[C@H](O)[C@@H](O)C(O)O[C@@H]3CO)O[C@@H]2CO)[C@H](O)[C@@H](O)[C@@H]1N[C@H]1C=C(CO)[C@@H](O)[C@H](O)[C@H]1O (some centres undefined) [ACARBOSE] ? 652.4

Any idea what its RBC is? The molecule is CCOC(=O)C(C)(C)Oc1ccc(Cl)cc1 [CLOFIBRATE] 675.8

Please give the measured RBC for this molecule: Cc1cccc(C)c1OCC(C)N (centres undefined) [MEXILETINE] 637.2

Given the molecule O=[N+]([O-])c1ccc(O)c([N+](=O)[O-])c1 [2,4-DINITROPHENOL] , what is its reported RBC? 629

Request the reported RBC associated with C=C(C)[C@H]1Cc2c(ccc3c2O[C@@H]2COc4cc(OC)c(OC)cc4[C@@H]2C3=O)O1 [ROTENONE] 626.2

I'd like to know its RBC. The molecule in question is O=C1CN(/N=C/c2ccc([N+](=O)[O-])o2)C(=O)N1 [NITROFURANTOIN] 657.2

* * *

For each entry below, report its Lym value.
- Species on record: Rattus norvegicus
- experimentalProtocol: Open TG-GATES - Regimen: Single
- Format: toxicity, organism-based, Sprague-Dawley
- Set-up: regimen Single, gender Male, age 6 weeks
- setupConditions: in vivo, po, 0 mg/kg, 6 h, tissue Blood, route gavage, dose level Control
Write the number in % without appending the unit.

Please look up its Lym: C[C@H]1O[C@H](O[C@H]2[C@H](O)[C@@H](O)[C@@H](O[C@H]3[C@H](O)[C@@H](O)C(O)O[C@@H]3CO)O[C@@H]2CO)[C@H](O)[C@@H](O)[C@@H]1N[C@H]1C=C(CO)[C@@H](O)[C@H](O)[C@H]1O (stereo not given in full) 73.6

I am curious: what Lym value has been reported for CCOC(=O)C(C)(C)Oc1ccc(Cl)cc1 [CLOFIBRATE] ? 76.8

Returns the measured Lym for the input compound. Input: Cn1cc[nH]c1=S 82

Form field: reported Lym of C=C(C)[C@H]1Cc2c(ccc3c2O[C@@H]2COc4cc(OC)c(OC)cc4[C@@H]2C3=O)O1 72.2

# Lym lookup, item Cc1cccc(C)c1OCC(C)N (stereo not given) 78.4

* * *

Provide the reported MCV of each item.
- Species on record: Rattus norvegicus
- experimentalProtocol: Open TG-GATES - Regimen: Single
- Assay type: toxicity, organism-based, Sprague-Dawley
- Design: regimen Single, gender Male, age 6 weeks
- setupConditions: in vivo, po, 0 mg/kg, 9 h, tissue Blood, route gavage, dose level Control
Unit fL implied. Number only.

I would be grateful if you could share the reported MCV for C[C@H]1C(=O)O[C@@H]2CCN3CC=C(COC(=O)[C@](C)(O)[C@]1(C)O)[C@H]23 [MONOCROTALINE] . 62.7

Which MCV reading was recorded for the compound O=[N+]([O-])c1ccc(O)c([N+](=O)[O-])c1 [2,4-DINITROPHENOL] ? 65.1

What value of measured MCV is listed for Cc1ccc2cc3c(ccc4ccccc43)c3c2c1CC3 [3-METHYLCHOLANTHRENE] ? 64.5

Return reported MCV; argument: C[C@H]1O[C@H](O[C@H]2[C@H](O)[C@@H](O)[C@@H](O[C@H]3[C@H](O)[C@@H](O)C(O)O[C@@H]3CO)O[C@@H]2CO)[C@H](O)[C@@H](O)[C@@H]1N[C@H]1C=C(CO)[C@@H](O)[C@H](O)[C@H]1O (some centres undefined) [ACARBOSE] 64.8

Which MCV reading was recorded for the compound Cn1cc[nH]c1=S [METHIMAZOLE] ? 63.4

Any idea what its MCV is? The compound is Cc1cccc(C)c1OCC(C)N (centres undefined) [MEXILETINE] 64.1

What measured MCV goes with OCCN1CCN(CCCN2c3ccccc3Sc3ccc(C(F)(F)F)cc32)CC1 [FLUPHENAZINE] ? 65.6

Please look up its MCV: CCOC(=O)C(C)(C)Oc1ccc(Cl)cc1 [CLOFIBRATE] 59.7

Which MCV is listed for C=C(C)[C@H]1Cc2c(ccc3c2O[C@@H]2COc4cc(OC)c(OC)cc4[C@@H]2C3=O)O1 [ROTENONE] ? 64.8

The origin of these recorded values is ChEMBL document CHEMBL3885861.
